TGT: human recombinant Yes [a.a. 2–543 (end)] (Homo sapiens, UniProt P07947)
Construct: human recombinant Yes [a.a; 2–543 (end)]; purchased BPS Bioscience 40488
Sequence (P07947 2-543): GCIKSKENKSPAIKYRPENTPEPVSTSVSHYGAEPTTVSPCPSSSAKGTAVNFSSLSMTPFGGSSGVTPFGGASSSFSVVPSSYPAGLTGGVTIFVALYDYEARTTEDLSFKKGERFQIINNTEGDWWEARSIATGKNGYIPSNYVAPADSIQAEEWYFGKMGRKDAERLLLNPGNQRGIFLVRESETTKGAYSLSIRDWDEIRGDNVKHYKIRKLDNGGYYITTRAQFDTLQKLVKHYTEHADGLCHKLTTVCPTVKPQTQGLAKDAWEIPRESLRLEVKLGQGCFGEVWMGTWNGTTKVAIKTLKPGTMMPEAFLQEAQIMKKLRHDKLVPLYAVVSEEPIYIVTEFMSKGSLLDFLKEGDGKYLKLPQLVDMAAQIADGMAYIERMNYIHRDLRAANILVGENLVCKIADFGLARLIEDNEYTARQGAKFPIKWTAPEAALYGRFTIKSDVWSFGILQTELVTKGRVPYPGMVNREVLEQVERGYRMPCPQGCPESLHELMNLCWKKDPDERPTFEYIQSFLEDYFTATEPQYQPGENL
METHOD_NOTES: ADP-Glo kinase assay, inhibition rates of Yes phosphorylation activity (first and second screening)
Type: biochemical
RUN_CONDITIONS: first screening; mean of n = 4 wells; 10 μmol L−1 compound
PROPERTY_LABEL: First screening IR (inhibition rate)
Quote the value and follow it with the unit of measurement.

Below, each entry is followed by its recorded First screening IR (inhibition rate) result.
Ask: Would you kindly share the measured First screening IR (inhibition rate) for Cc1cc(=O)c(C(=O)N2CCC(C(=O)N3CCCCCC3)CC2)nn1-c1ccccc1F [Compound Z117548264] ?
Result: 2%

Ask: // next record Cc1nc(NCC2CCN(c3ccc(F)cc3)C2)c2cnn(C)c2n1 (stereo not drawn) [Compound Z815820560]
Result: -4%

Ask: Next entry: COC(=O)Nc1ccc(NC(=O)C2CC2c2ccc(C(C)C)cc2)cc1F (stereo not drawn) [Compound Z1646916001]
Result: 7%

Ask: Also check CC1CCCC(NC(=S)Nc2cccc(S(=O)(=O)N(C)C)c2)C1C (stereo not drawn) [Compound Z45768220]
Result: 27%

Ask: Again, but for O=S1(=O)C=C(Cl)C(Br)C1 (stereo not drawn) [Compound Z57056476]
Result: 1%

Ask: Then CC(Sc1n[nH]c(-c2ccccc2)n1)C(=O)c1c[nH]c2ccccc12 (stereo not drawn) [Compound Z25398193] ?
Result: 49%

Continuing:
Ask: Item O=C(/C=C/c1cn(-c2ccccc2)nc1-c1cccnc1)N1CC=C(c2ccccc2)CC1 [Compound Z29699890] has what recorded First screening IR (inhibition rate)?
Result: 10%

Ask: Next entry: COc1ccc2[nH]c(C)c(C(=O)NCC(C)(C)c3cccc(F)c3)c2c1 [Compound Z1482480186]
Result: 70%

Ask: Next: Cc1ccc2nc(-c3ccc(Nc4nnc(Cc5csc(C)n5)s4)cc3)sc2c1 [Compound Z119992430]
Result: 40%

Ask: # repeat for COc1cc(CNC(=O)c2ccc[nH]c2=O)ccc1OCC(N)=O [Compound Z666252570]
Result: 1%

Ask: CN(C)C1(CNC(=O)CNC(=O)c2cc(F)cc(F)c2)CCOCC1 [Compound Z1199845522] , same question.
Result: 6%

Ask: // repeat for O=C(COc1cccnc1[N+](=O)[O-])Nc1ccc2c(c1)OCCO2 [Compound Z24778709] and report
Result: 9%

====

TGT: human recombinant Yes [a.a. 2–543 (end)] (Homo sapiens, UniProt P07947)
Construct: human recombinant Yes [a.a; 2–543 (end)]; purchased BPS Bioscience 40488
METHOD_NOTES: ADP-Glo kinase assay, inhibition rates of Yes phosphorylation activity (first and second screening)
Format: biochemical
RUN_CONDITIONS: first screening; mean of n = 4 wells; 10 μmol L−1 compound
PROPERTY_LABEL: First screening IR (inhibition rate) (%)
Quick note: give the figure in %, leave out the unit.

Before answering, review these 3 worked examples.
Ask: Any idea what First screening IR (inhibition rate) was measured for Cc1cccc(NC2CCN(C(=O)c3c[nH]c4cccc(F)c34)CC2)n1 ?
Result: 3

Ask: Further, for CCN(CC)S(=O)(=O)c1ccc(N2CCC(NC(C)C)CC2)c([N+](=O)[O-])c1 ?
Result: 8

Ask: Field entry: CN(CC(=O)N1CCc2ccccc2C1)Cc1nc2ccccc2c(=O)[nH]1
Result: -12

Further cases:
Ask: # lookup: First screening IR (inhibition rate) of Cc1ccc2nc(CSc3n[nH]c(-c4ccccc4)n3)cn2c1
Result: -4

Ask: Entry CC(C)(C)c1nccc(Nc2cn[nH]c2)n1 please
Result: 42

Ask: Cool, now CCn1ncc2c(C(=O)N3CCN(CC(=O)Nc4cccc(C)c4C)CC3)cc(-c3ccccc3)nc21
Result: -4

Ask: And then COc1ccccc1NC(=O)C1=C(C)Nc2nc(SCc3ccccc3)nn2C1c1ccncc1 (centres unmarked) , what is it?
Result: -5

Ask: Entry Cc1sc2nc(-c3cccnc3)nc(N3CCOCC3)c2c1-c1ccccc1 please
Result: 13

====

TGT: human recombinant Yes [a.a. 2–543 (end)] (Homo sapiens, UniProt P07947)
Construct: human recombinant Yes [a.a; 2–543 (end)]; purchased BPS Bioscience 40488
METHOD_NOTES: ADP-Glo kinase assay, inhibition rates of Yes phosphorylation activity (first and second screening)
Type: biochemical
RUN_CONDITIONS: second screening, dissolved from fresh powder; n = 4; 10 μmol L−1 compound
PROPERTY_LABEL: Second screening IR (inhibition rate) (%)
All answers are understood in %, so give the number only.

Consider the following illustrative entries.
Ask: Fill blank: measured Second screening IR (inhibition rate) of the compound CCCC(C)c1cc(NC(=O)c2ccc(N3CCNC3=O)cc2)n[nH]1 (stereo not shown) [Compound Z1283491630] is ____.
Result: 49

Ask: Same lookup for CN(C)c1ccc(/C=c2/s/c(=C(/C#N)C(=O)NCCN3CCOCC3)n(Cc3ccco3)c2=O)cc1 [Compound Z48025165] , please.
Result: -4

Ask: Also check c1ccc(Cn2cccn2)c(CNc2cncc(-n3cccn3)n2)c1 [Compound Z432289626]
Result: 18

Ask: Please answer likewise for c1ccc2nc(Nc3cn[nH]c3)cnc2c1 [Compound Z729018028]
Result: -12

Ask: For NC(=O)c1cc(-c2csc(NCc3ccccc3)n2)ccc1O [Compound Z48850058] then?
Result: 28

New cases:
Ask: Reported Second screening IR (inhibition rate), compound CC(C)n1ncc2cc(/C=C3/CN(C)Cc4c3nc3ccccc3c4C(=O)O)c(Cl)nc21 [Compound Z336032562] : ____
Result: -2

Ask: Also need CC(=O)Nc1ccc(/C=N/Nc2ncnc3cc(-c4ccc(F)cc4)sc23)cc1 [Compound Z50080181] , thanks.
Result: 47

Ask: Cn1c(=O)n(CCN2CCOCC2)c(=O)c2c1nc1n2CCN1c1ccc(Oc2ccccc2)cc1 [Compound Z223838602] , same question.
Result: -4

Ask: Moving on to COc1cc(C)c(Sc2cnc(NC(=O)c3ccc(CCl)cc3)s2)cc1C(=O)N1CCN(C(C)=O)CC1 [Compound Z168829182]
Result: 37

Ask: Now give it for COc1ccc(OC)c2c1CN(c1nc(CN3CCOCC3)nc3sc(C)c(C)c13)CC2O (stereo not shown) [Compound Z128154998] too.
Result: -4

Ask: Do the same for CC(CCN1CCN(c2ccccc2)CC1)NC(=O)c1cc(-c2ccco2)nc2c1cnn2C(C)C (stereo not shown) [Compound Z385234634] please
Result: 1

Ask: Record: COc1c(CNCc2ccc(C(=O)N(C)C)cc2)c(C)nn1C [Compound Z991036884]
Result: -29

Ask: // next record Cc1n[nH]c(C)c1S(=O)(=O)Nc1cccc(/C=C/c2ccccn2)c1 [Compound Z45649828]
Result: 0

Ask: Here is the next compound: COC(=O)c1sc2ncc(/C=C/C(=O)c3cccnc3)cc2c1C [Compound Z871886494]
Result: 12

Ask: Consider next the compound CS(=O)(=O)c1ccc(N2CCCCCC2)c(S(C)(=O)=O)c1 [Compound Z199538216] in the same way.
Result: -10

Ask: Field entry: CC(C)(C)c1nccc(Nc2cn[nH]c2)n1 [Compound Z1317605702]
Result: 7

====

Recorded First screening IR (inhibition rate) by entry
TGT: human recombinant Yes [a.a. 2–543 (end)] (Homo sapiens, UniProt P07947)
Construct: human recombinant Yes [a.a; 2–543 (end)]; purchased BPS Bioscience 40488
METHOD_NOTES: ADP-Glo kinase assay, inhibition rates of Yes phosphorylation activity (first and second screening)
Type: biochemical
RUN_CONDITIONS: first screening; mean of n = 4 wells; 10 μmol L−1 compound
Record the value in %, omitting the unit from your answer.

Ask: Query (molecule): Oc1c(-c2nc3ccccc3c3ccccc23)sc2ncccc12 ; field requested: First screening IR (inhibition rate)
Result: 43

Ask: What do you get for Cc1cc(C)cc(C(=O)N(c2cc(C)cc(C)c2)C2C=CS(=O)(=O)C2)c1 (centres unmarked) ?
Result: 34

Ask: Further, for Fc1ccc(-n2cc(-c3ccccc3)c3c(N4CCOCC4)ncnc32)cc1 ?
Result: 5

Ask: # iterate: O=C(Nc1cccc2ncccc12)c1ccc(=O)n(-c2ccc(F)cc2)n1
Result: 43

Ask: Consider next the molecule CCc1ccc(CNc2cccc(NC(=O)OCCOC)c2)o1 in the same way.
Result: -7

Ask: Okay, and Brc1ccc2nc(CNCc3cnc(-c4ccccc4)nc3)cn2c1 ?
Result: 4

Ask: What would you report for Clc1ccc(/C=C2/CCCc3c2nc2ncnn2c3-c2ccc(Cl)cc2Cl)c(Cl)c1 ?
Result: 3

Ask: Same lookup for Cc1nc2ccc(NC(=O)CNC(=O)c3ccccc3F)cc2s1 , please.
Result: 4

Continuing:
Ask: State the recorded First screening IR (inhibition rate) for this entry: CC(C)c1nnc(CNC(C)(C)c2ccc(Cl)cc2)o1
Result: 17

Ask: Follow-up entry: c1cncc(-c2nc(SCc3nc4ccccc4o3)n[nH]2)c1
Result: -2

Ask: // query: O=C(NCCN1CCc2ccccc2C1)Nc1ccncc1F
Result: 0

Ask: Another: Cc1noc(C)c1CC(=O)NN=C(c1ccccc1)c1ccccc1
Result: -9

Ask: Same for CC(C)n1ncc2c(C(=O)Nc3ccc(F)c([N+](=O)[O-])c3)cc(-c3ccco3)nc21
Result: -1

Ask: Continue with CC(C)C(C)NC(=O)C1CCN(Cc2ccc(C#N)cc2)CC1 (centres unmarked)
Result: 5

Ask: One more molecule: CC(C)CN(C1CCS(=O)(=O)C1)S(=O)(=O)c1ccc(Cl)c(Cl)c1 (centres unmarked)
Result: 1

Ask: // next record Cc1ccc(-n2c(SCC(=O)c3ccc(NC(=O)C(C)(C)C)cc3)nnc2N2CCOCC2)cc1
Result: 11

Ask: Now consider Cc1ccc(-c2cc(-c3ccccc3)c3ccccc3n2)cc1.Cl .
Result: 11

Where do these numbers come from? They come from paper PMC5607274.
